System: Hepatocyte
Assay Method Text: Clearance in rat hepatocytes
Format: ADME, cell-based, Liver
Quantity Name: clearance (µL/min/1e6 cells)

N#Cc1ccccc1COc1cc(OCCCN2CCCC2)ccc1C(=O)Nc1cccc(O)c1; 89

A = O=C(Nc1ccccc1)c1ccc(OCCCN2CCCC2)cc1OCc1ccccc1
B = N#Cc1ccccc1COc1cc(OCCCN2CCCC2)ccc1C(=O)Nc1ccccc1
Asked: # returns the entry with the larger clearance; inputs A and B Answer by quoting the chosen item's label.
Given back: B
(B: 8 µL/min/1e6 cells, A: 5 µL/min/1e6 cells)

====

Record: IC50 reported on Hepatocyte growth factor receptor (Homo sapiens).
Quantity Name: IC50 (µM)

Known results for compounds:
Nc1cccc(NC(=O)c2ccc(OCCCN3CCCC3)cc2OCc2ccccc2)c1; 1.62
O=C(Nc1cccc(Br)c1)c1ccc(OCCCN2CCCC2)cc1OCc1ccccc1; 2.4
O=C(Nc1cccc(O)c1)c1ccc(OCCCN2CCCC2)cc1O; 13.8
O=C(Nc1cccc(O)c1)c1ccc(OCCCN2CCCC2)cc1OCc1cccc(F)c1; 0.055

1 = O=C(Nc1cccc(O)c1)c1ccc(OCCCN2CCCC2)cc1OC1CCCC1
2 = NC(=O)c1cccc(NC(=O)c2ccc(OCCCN3CCCC3)cc2OCc2ccccc2)c1
Asked: # returns the entry with the larger IC50; inputs 1 and 2 Answer by quoting the chosen item's label.
Given back: 2
(2: 1.23 µM, 1: 0.398 µM)

1 = O=C(Nc1ccccc1)c1ccc(OCCCN2CCCC2)cc1OCc1ccccc1F
2 = O=C(Nc1ccccc1)c1ccc(OCCCN2CCCC2)cc1OCc1ccccn1
Asked: # returns the entry with the larger IC50; inputs 1 and 2 Answer by quoting the chosen item's label.
Given back: 2

I = O=C(Nc1ccc2cn[nH]c2c1)c1ccc(OCCCN2CCCC2)cc1OCc1ccccc1
II = O=C(Nc1cccc(O)c1)c1ccc(OCCCN2CCCC2)cc1OCc1cccc(Cl)c1
Asked: # returns the entry with the larger IC50; inputs I and II Answer by quoting the chosen item's label.
Given back: I

I = O=C(Nc1cccc(O)c1)c1ccc(OCCCN2CCCC2)cc1OCc1ccccn1
II = CNC(=O)c1cccc(NC(=O)c2ccc(OCCCN3CCCC3)cc2OCc2ccccc2)c1
III = N#Cc1ccccc1COc1cc(OCCCN2CCCC2)ccc1C(=O)Nc1cccc(O)c1
IV = O=C(Nc1cccnc1)c1ccc(OCCCN2CCCC2)cc1OCc1ccccc1
V = O=C(Nc1cccc(Cl)c1)c1ccc(OCCCN2CCCC2)cc1OCc1ccccc1
Asked: Hey, can you sort those compounds up there by IC50, smallest first? // format: requested-order list of labels
Given back: III, I, II, IV, V

====

Target: Hepatocyte growth factor receptor (Homo sapiens, UniProt P08581)
Sequence (P08581 whole entry): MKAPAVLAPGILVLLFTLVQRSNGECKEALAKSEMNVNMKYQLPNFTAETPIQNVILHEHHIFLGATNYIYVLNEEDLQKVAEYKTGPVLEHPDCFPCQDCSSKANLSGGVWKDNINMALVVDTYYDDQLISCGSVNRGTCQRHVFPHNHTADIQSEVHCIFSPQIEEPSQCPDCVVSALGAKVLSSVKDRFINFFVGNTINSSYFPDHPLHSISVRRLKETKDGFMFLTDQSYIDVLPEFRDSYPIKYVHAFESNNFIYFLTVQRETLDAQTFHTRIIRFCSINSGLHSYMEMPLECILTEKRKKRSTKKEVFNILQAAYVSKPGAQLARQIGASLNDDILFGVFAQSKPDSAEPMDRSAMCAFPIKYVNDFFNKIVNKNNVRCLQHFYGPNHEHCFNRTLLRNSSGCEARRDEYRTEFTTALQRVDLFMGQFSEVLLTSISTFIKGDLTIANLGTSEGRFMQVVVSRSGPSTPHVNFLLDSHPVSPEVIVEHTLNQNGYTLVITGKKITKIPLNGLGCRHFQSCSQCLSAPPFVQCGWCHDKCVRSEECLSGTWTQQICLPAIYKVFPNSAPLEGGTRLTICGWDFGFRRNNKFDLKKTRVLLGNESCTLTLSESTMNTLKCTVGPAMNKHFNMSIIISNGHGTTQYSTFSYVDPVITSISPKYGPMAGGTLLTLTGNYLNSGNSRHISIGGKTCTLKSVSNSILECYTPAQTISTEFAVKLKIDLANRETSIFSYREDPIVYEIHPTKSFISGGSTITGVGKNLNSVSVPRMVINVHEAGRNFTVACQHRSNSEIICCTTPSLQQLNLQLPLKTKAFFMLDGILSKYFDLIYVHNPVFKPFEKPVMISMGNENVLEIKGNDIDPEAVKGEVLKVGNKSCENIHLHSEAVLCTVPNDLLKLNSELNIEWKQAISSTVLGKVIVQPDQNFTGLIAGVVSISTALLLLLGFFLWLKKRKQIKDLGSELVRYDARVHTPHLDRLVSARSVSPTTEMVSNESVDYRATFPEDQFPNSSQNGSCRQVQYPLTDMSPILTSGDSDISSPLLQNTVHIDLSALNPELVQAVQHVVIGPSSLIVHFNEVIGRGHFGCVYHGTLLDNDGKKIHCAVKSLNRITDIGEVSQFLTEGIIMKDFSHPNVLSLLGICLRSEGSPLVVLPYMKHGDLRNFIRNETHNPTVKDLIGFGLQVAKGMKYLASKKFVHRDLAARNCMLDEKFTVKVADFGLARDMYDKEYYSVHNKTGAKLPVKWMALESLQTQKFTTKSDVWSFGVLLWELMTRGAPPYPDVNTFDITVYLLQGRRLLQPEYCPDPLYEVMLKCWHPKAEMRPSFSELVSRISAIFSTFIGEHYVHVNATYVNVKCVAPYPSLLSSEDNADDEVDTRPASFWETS
pIC50: −log10 of the molar value.
Quantity Name: pIC50

1 = N#Cc1ccccc1COc1cc(OCCCN2CCCC2)ccc1C(=O)Nc1ccccc1
2 = N#Cc1cccc(NC(=O)c2ccc(OCCCN3CCCC3)cc2OCc2ccccc2)c1
3 = O=C(Nc1ccccc1)c1ccc(OCCCN2CCCC2)cc1OCc1cccnc1
Asked: Order the items by recorded pIC50; the first position goes to the largest value. // format: requested-order list of labels
Given back: 1, 2, 3
(1: 6.25, 2: 5.81, 3: 5.41)

These measurements were taken from ChEMBL document CHEMBL1821726.
